System: MDA-MB-231 human breast cancer cells
Test: Cell proliferation assay (CellTiter-Glo, 72 hours treatment)
Type: cell-based
Settings: Homo sapiens; MDA-MB-231 cells, 72 hours at 37° C., CellTiter-Glo; read-out: MDA-MB-231 cell proliferation assay (IC50)
Experimental: Human tumor cell lines were cultured in the appropriate media (DMEM and RPMI) supplemented with penicillin G (100 U/ml), streptomycin (100 μg/ml), 10% FBS in a humidified atmosphere of 5% CO2 maintained at 37° C. Exponentially growing cells were seeded at 2,500 cells/well in 96 well plates prior to drug treatment. […] Following compound treatment, cell proliferation was assessed by CellTiter-Glo assay (Promega, Madison Wis.) according to the manufacturer's protocol. […]
Entries and their measured IC50 follow.

Reported IC50 for N#Cc1ccc([C@@]23Oc4cc(Cl)cnc4[C@]2(O)[C@H](O)[C@H](Sc2ccccn2)[C@H]3c2ccccc2)cc1 (racemic) [189F] : what is it? 0.1 to 1 µM

Please give the result for OC[C@@H]1C[C@@H](c2ccccc2)[C@]2(c3ccc(Br)cc3)Oc3cc(Cl)cnc3[C@]12O (racemic) [166F] too. 0.1 to 1 µM

Please give the result for N#Cc1ccc([C@@]23Oc4cc(Cl)cnc4[C@]2(O)[C@H](O)[C@H](S(=O)(=O)N2CCCC2)[C@H]3c2ccccc2)cc1 (single isomer, unassigned) [83F] too. < 0.1 µM

Please give the result for CCNC[C@@H]1[C@@H](c2ccccc2)[C@]2(C3=CC=C(C#N)CC3)Oc3cncc(OC)c3[C@]2(O)[C@@H]1O (racemic) [70F] too. 0.1 to 1 µM

Please give the result for COc1cncc2c1[C@]1(O)[C@H](O)[C@H](C(=O)N(C)CC(C)(C)O)[C@@H](c3ccccc3)[C@]1(c1ccc(Br)cc1)O2 (racemic) [251F] too. < 0.1 µM

Please give the result for COc1cncc2c1[C@]1(O)[C@H](O)[C@H](C(=O)N3CCC(F)(F)CC3)[C@@H](c3ccccc3)[C@]1(c1ccc(Br)cc1)O2 (racemic) [135F] too. < 0.1 µM
